Please provide measured inhibition at 0.3 µM for the entries that follow.
biological target: β-secretase(BACE) (Homo sapiens, UniProt P56817); construct: purchased Panvera; assay: BACE FS1% Inhibition Assay; assay type: biochemical; conditions: 0.3 μM test compound; FS1 substrate; read-out: % Inhibition (FS) 0.3 μM
Sequence (P56817 46-501): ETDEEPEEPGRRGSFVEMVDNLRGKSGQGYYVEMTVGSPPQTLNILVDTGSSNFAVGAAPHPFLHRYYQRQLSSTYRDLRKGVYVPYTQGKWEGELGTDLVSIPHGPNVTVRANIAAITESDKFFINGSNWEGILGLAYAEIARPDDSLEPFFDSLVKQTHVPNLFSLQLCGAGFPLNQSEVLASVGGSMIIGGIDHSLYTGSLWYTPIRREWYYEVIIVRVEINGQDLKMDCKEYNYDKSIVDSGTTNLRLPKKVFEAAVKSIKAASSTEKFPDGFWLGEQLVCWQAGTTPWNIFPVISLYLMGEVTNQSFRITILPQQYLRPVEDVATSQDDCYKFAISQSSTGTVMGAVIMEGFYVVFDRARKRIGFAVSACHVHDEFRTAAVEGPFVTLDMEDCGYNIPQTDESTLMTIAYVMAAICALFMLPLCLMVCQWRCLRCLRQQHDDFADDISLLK
Numbers only, in %.

>>> print(df.to_string())
                                   molecule  unit_info  observed_result
0  CCCCCC(CCC(=O)NC1CCCCC1)N1Cc2cc(Oc3ccccc3)ccc2N=C1N (stereo not shown)          %               32

Would you kindly look at the next entry?
Quick check: inhibition at 0.3 µM on β-secretase(BACE) (Homo sapiens, UniProt P56817), item "NC1=Nc2ccc(Oc3ccccc3)cc2CN1CCNC(=O)NC1CCCCC1" ?
39

----------
molecular target: β-secretase(BACE) (Homo sapiens, UniProt P56817); construct: purchased Panvera; test: BACE FS1% Inhibition Assay; assay type: biochemical; settings: 0.3 μM test compound; FS1 substrate; read-out: % Inhibition (FS) 0.3 μM
RESULT_TYPE: inhibition at 0.3 µM (%)
Answers are plain numbers, in %.

Below are worked cases with known answers.
                                   molecule                               system_name           result_type  unit_info  observed_result
0  COc1ccccc1-c1ccc2c(c1)CN(CCC(=O)NC1CCCCC1)C(N)=N2  β-secretase(BACE) (Homo sapiens, UniProt P56817)  inhibition at 0.3 µM          %               75
1  CN(C(=O)c1cccc(CN2Cc3cc(-c4ccccc4C#N)ccc3N=C2N)c1)C1CCCCC1  β-secretase(BACE) (Homo sapiens, UniProt P56817)  inhibition at 0.3 µM          %               20
2  CCCCCC(CCC(=O)N(C)C1CCCCC1)N1Cc2cc(Oc3ccccc3)ccc2N=C1N (stereo not shown)  β-secretase(BACE) (Homo sapiens, UniProt P56817)  inhibition at 0.3 µM          %               35
3  CCC(c1cccc(C(=O)N(C2CCCCC2)C2CCCCC2)c1)N1Cc2cc(-c3ccccc3OC)ccc2N=C1N (stereo not shown)  β-secretase(BACE) (Homo sapiens, UniProt P56817)  inhibition at 0.3 µM          %               54

Go through the items and report each one's inhibition at 0.3 µM.
1. Cc1ccccc1-c1ccc2c(c1)CN(Cc1cccc(C(=O)N(C)C3CCCCC3)c1)C(N)=N2
2. COc1ccccc1-c1ccc2c(c1)CN(CCC(=O)NC1C3CC4CC(C3)CC1C4)C(N)=N2 (stereo not shown)
3. NC1=Nc2ccc(-c3ccccc3)cc2CN1CCNC(=O)C1CCCCC1
4. CN(C(=O)CC[C@@H](C1CCCCC1)N1Cc2cc(Oc3ccccc3)ccc2N=C1N)C1CCOCC1

1: 51; 2: 103; 3: 41; 4: 74

----------
biological target: β-secretase(BACE) (Homo sapiens); construct: purchased Panvera; test: BACE FS1% Inhibition Assay; type: biochemical; conditions: 0.3 μM test compound; FS1 substrate; read-out: % Inhibition (FS) 0.3 μM
RESULT_TYPE: inhibition at 0.3 µM

Examples with their reported inhibition at 0.3 µM follow.
>>> print(df.to_string())
                                   molecule           result_type  observed_result
0  CN(C(=O)c1cccc(CN2Cc3cc(-c4ccccc4CO)ccc3N=C2N)c1)C1CCCCC1  inhibition at 0.3 µM              85%
1  CN(C(=O)CCC(c1ccc(Cl)cc1)N1Cc2cc(Oc3ccccc3)ccc2N=C1N)C1CCCCC1 (centres unmarked)  inhibition at 0.3 µM            < 30%
2  CN(C(=O)c1cccc(CN2Cc3cc(-c4ccccc4C(N)=O)ccc3N=C2N)c1)C1CCCCC1  inhibition at 0.3 µM            < 30%
3  NC1=Nc2ccc(-c3cccc(CO)c3)cc2CN1CCNC(=O)CC1CCCC1  inhibition at 0.3 µM              40%

Give measured inhibition at 0.3 µM for every item shown.
1. CN(CCN1Cc2cc(Oc3ccccc3)ccc2N=C1N)C(=O)C1CCCCC1
2. Cc1cccc(-c2ccc3c(c2)CN(CCNC(=O)C2CCCCC2)C(N)=N3)c1
3. CN(C(=O)c1cccc(CN2Cc3cc(-c4cccnc4)ccc3N=C2N)c1)C1CCCCC1
4. COc1ccc(C(CCC(=O)N(C)C2CCCCC2)N2Cc3cc(Oc4ccccc4)ccc3N=C2N)cc1 (centres unmarked)

1: < 30%; 2: 39%; 3: < 30%; 4: < 30%
